protocol text: Ocular tissue concentrations (aqueous humor, vitreous humor, iris, retina, choroid, cornea) after topical ocular, subcutaneous and intravitreal administration
Type: in vivo, New Zealand White rabbits
condition notes: New Zealand White, rabbit, vitreous humor, topical, 1.2 mg/eye, Group 1 topical ocular 1.2 mg/eye; 0.5 hr; read-out: vitreous humor Average Conc.
Where a name gives a salt, the structure may show the parent alone.
readout label: concentration at 0.5 h (ng/g)
A number alone suffices; assume ng/g.

Fill in the blank: the reported concentration at 0.5 h of COC(=O)N[C@@H](Cc1ccccc1)C(=O)N[C@@H](Cc1ccc(NS(=O)(=O)O)cc1)c1csc(-c2cccs2)n1 [Compound 1 sodium salt] is ____.
0.61

====

protocol text: Ocular tissue concentrations (aqueous humor, vitreous humor, iris, retina, choroid, cornea) after topical ocular, subcutaneous and intravitreal administration
Assay type: in vivo, New Zealand White rabbits
condition notes: New Zealand White, rabbit, retina homogenate, subcutaneous, 5 mg/kg/dose, TABLE 16: Retina homogenate, 2 hr, OD; free acid, subcutaneous 5 mg/kg/dose, Group 3; read-out: Retina Conc. (ng/mL) OD
readout label: concentration at 2 h

Fill in the blank: the reported concentration at 2 h of COC(=O)N[C@@H](Cc1ccccc1)C(=O)N[C@@H](Cc1ccc(NS(=O)(=O)O)cc1)c1csc(-c2cccs2)n1 [Compound 1] is ____.
0.574 ng/mL

====

protocol text: Ocular tissue concentrations (aqueous humor, vitreous humor, iris, retina, choroid, cornea) after topical ocular, subcutaneous and intravitreal administration
Type: in vivo, New Zealand White rabbits
condition notes: New Zealand White, rabbit, iris homogenate, other: intravitreal, 2.5 mg/eye, Iris homogenate, 48 hr, left eye, intravitreal 2.5 mg/eye (group 5), individual animals; read-out: Conc. (ng/mL) OS
readout label: concentration at 48 h (ng/mL)
A number alone suffices; assume ng/mL.

Fill in the blank: the reported concentration at 48 h of COC(=O)N[C@@H](Cc1ccccc1)C(=O)N[C@@H](Cc1ccc(NS(=O)(=O)O)cc1)c1csc(-c2cccs2)n1 [Compound 1] is ____.
1950

====

protocol text: Ocular tissue concentrations (aqueous humor, vitreous humor, iris, retina, choroid, cornea) after topical ocular, subcutaneous and intravitreal administration
Type: in vivo, New Zealand White rabbits
condition notes: New Zealand White, rabbit, choroid, subcutaneous, 5 mg/kg/dose, Choroid, 1 hr; free acid, subcutaneous 5 mg/kg/dose, Group 3; read-out: Choroid Average
readout label: concentration at 1 h (ng/g)
A number alone suffices; assume ng/g.

Fill in the blank: the reported concentration at 1 h of `COC(=O)N[C@@H](Cc1ccccc1)C(=O)N[C@@H](Cc1ccc(NS(=O)(=O)O)cc1)c1csc(-c2cccs2)n1` is ____.
83.3

====

protocol text: Ocular tissue concentrations (aqueous humor, vitreous humor, iris, retina, choroid, cornea) after topical ocular, subcutaneous and intravitreal administration
Assay type: in vivo, New Zealand White rabbits
condition notes: New Zealand White, rabbit, iris, topical, 1.2 mg/eye, topical ocular 1.2 mg/eye (~0.7 mg/kg/dose); 1 hr; read-out: Iris tissue Average
Where a name gives a salt, the structure may show the parent alone.
readout label: concentration at 1 hr
Reply with a number, then the unit it belongs to.

Fill in the blank: the reported concentration at 1 hr of COC(=O)N[C@@H](Cc1ccccc1)C(=O)N[C@@H](Cc1ccc(NS(=O)(=O)O)cc1)c1csc(-c2cccs2)n1 [Compound 1 sodium salt] is ____.
55.2 ng/g

====

protocol text: Ocular tissue concentrations (aqueous humor, vitreous humor, iris, retina, choroid, cornea) after topical ocular, subcutaneous and intravitreal administration
Format: in vivo, New Zealand White rabbits
condition notes: New Zealand White, rabbit, vitreous humor, other: intravitreal, 2.5 mg per eye, Group 4 intravitreal 2.5 mg per eye; 72 hr; read-out: vitreous humor Average Conc.
Counter-ions that a name gives are not always drawn.
readout label: concentration at 72 h (ng/g)
A number alone suffices; assume ng/g.

Fill in the blank: the reported concentration at 72 h of COC(=O)N[C@@H](Cc1ccccc1)C(=O)N[C@@H](Cc1ccc(NS(=O)(=O)O)cc1)c1csc(-c2cccs2)n1 [Compound 1 sodium salt] is ____.
13400

====

protocol text: Ocular tissue concentrations (aqueous humor, vitreous humor, iris, retina, choroid, cornea) after topical ocular, subcutaneous and intravitreal administration
Assay type: in vivo, New Zealand White rabbits
condition notes: New Zealand White, rabbit, choroid, subcutaneous, 5 mg/kg/dose, Choroid, 4 hr, OD; sodium salt, subcutaneous 5 mg/kg/dose, Group 2; read-out: Choroid Conc. (ng/g) OD
readout label: concentration at 4 h (ng/g)
A number alone suffices; assume ng/g.

Fill in the blank: the reported concentration at 4 h of `COC(=O)N[C@@H](Cc1ccccc1)C(=O)N[C@@H](Cc1ccc(NS(=O)(=O)O)cc1)c1csc(-c2cccs2)n1` is ____.
18.7

====

protocol text: Ocular tissue concentrations (aqueous humor, vitreous humor, iris, retina, choroid, cornea) after topical ocular, subcutaneous and intravitreal administration
Type: in vivo, New Zealand White rabbits
condition notes: New Zealand White, rabbit, choroid, other: intravitreal, 2.5 mg/eye, Choroid, 6.0 hr, OD; sodium salt, intravitreal 2.5 mg/eye, Group 4; read-out: Choroid Conc. (ng/g) OD
readout label: concentration at 6 hr
Reply with a number, then the unit it belongs to.

Fill in the blank: the reported concentration at 6 hr of `COC(=O)N[C@@H](Cc1ccccc1)C(=O)N[C@@H](Cc1ccc(NS(=O)(=O)O)cc1)c1csc(-c2cccs2)n1` is ____.
346000 ng/g

====

protocol text: Ocular tissue concentrations (aqueous humor, vitreous humor, iris, retina, choroid, cornea) after topical ocular, subcutaneous and intravitreal administration
Type: in vivo, New Zealand White rabbits
condition notes: New Zealand White, rabbit, vitreous humor, other: intravitreal, 2.5 mg per eye, Group 4 intravitreal 2.5 mg per eye; 24 hr; read-out: vitreous humor Average Conc.
Description: To measure the concentration of Compound 1 in plasma and ocular tissues following topical ocular, subcutaneous, and intravitreal administration, New Zealand White rabbits were administered Compound 1, and plasma and ocular samples were collected at pre-determined time points. […] Ocular tissue samples from both eyes of each animal were collected and weights were recorded. Plasma and ocular tissue sample concentrations of Compound 1 were determined by LC-MS/MS. […]
Where a name gives a salt, the structure may show the parent alone.
readout label: concentration at 24 h
Reply with a number, then the unit it belongs to.

Fill in the blank: the reported concentration at 24 h of COC(=O)N[C@@H](Cc1ccccc1)C(=O)N[C@@H](Cc1ccc(NS(=O)(=O)O)cc1)c1csc(-c2cccs2)n1 [Compound 1 sodium salt] is ____.
350000 ng/g

====

protocol text: Ocular tissue concentrations (aqueous humor, vitreous humor, iris, retina, choroid, cornea) after topical ocular, subcutaneous and intravitreal administration
Format: in vivo, New Zealand White rabbits
condition notes: New Zealand White, rabbit, iris, other: intravitreal, 2.5 mg/eye, Iris, 24 hr, average, intravitreal 2.5 mg/eye (group 5); read-out: Avg.
readout label: concentration at 24 h (ng/g)
A number alone suffices; assume ng/g.

Fill in the blank: the reported concentration at 24 h of `COC(=O)N[C@@H](Cc1ccccc1)C(=O)N[C@@H](Cc1ccc(NS(=O)(=O)O)cc1)c1csc(-c2cccs2)n1` is ____.
113000

====

protocol text: Ocular tissue concentrations (aqueous humor, vitreous humor, iris, retina, choroid, cornea) after topical ocular, subcutaneous and intravitreal administration
Type: in vivo, New Zealand White rabbits
condition notes: New Zealand White, rabbit, retina, subcutaneous, 5 mg/kg/dose, Retina, 2 hr; free acid, subcutaneous 5 mg/kg/dose, Group 3; read-out: Retina Average
readout label: concentration at 2 h (ng/g)
A number alone suffices; assume ng/g.

Fill in the blank: the reported concentration at 2 h of `COC(=O)N[C@@H](Cc1ccccc1)C(=O)N[C@@H](Cc1ccc(NS(=O)(=O)O)cc1)c1csc(-c2cccs2)n1` is ____.
10.5

====

protocol text: Ocular tissue concentrations (aqueous humor, vitreous humor, iris, retina, choroid, cornea) after topical ocular, subcutaneous and intravitreal administration
Type: in vivo, New Zealand White rabbits
condition notes: New Zealand White, rabbit, iris, subcutaneous, 5 mg/kg/dose, Iris, 1 hr, OS; free acid, subcutaneous 5 mg/kg/dose, Group 3; read-out: Iris Conc. (ng/g) OS
readout label: concentration at 1 h (ng/g)
A number alone suffices; assume ng/g.

Fill in the blank: the reported concentration at 1 h of COC(=O)N[C@@H](Cc1ccccc1)C(=O)N[C@@H](Cc1ccc(NS(=O)(=O)O)cc1)c1csc(-c2cccs2)n1 [Compound 1] is ____.
47.6

====

protocol text: Ocular tissue concentrations (aqueous humor, vitreous humor, iris, retina, choroid, cornea) after topical ocular, subcutaneous and intravitreal administration
Type: in vivo, New Zealand White rabbits
condition notes: New Zealand White, rabbit, iris, subcutaneous, 5 mg/kg/dose, Iris, 4 hr, OS; sodium salt, subcutaneous 5 mg/kg/dose, Group 2; read-out: Iris Conc. (ng/g) OS
readout label: concentration at 4 hr

Fill in the blank: the reported concentration at 4 hr of `COC(=O)N[C@@H](Cc1ccccc1)C(=O)N[C@@H](Cc1ccc(NS(=O)(=O)O)cc1)c1csc(-c2cccs2)n1` is ____.
34.1 ng/g
